Protocol details: modulation of TERT promoter-driven luciferase – cell-based, luciferase reporter, human, primary screen (AID 1259240)
Experimental context: A2780 TERT promoter luciferase reporter, 16 h; at 20 µM, fold versus average of vehicle-only wells
# fold change per entry

# Compound, fold change
measured = [
    ("Nc1ncnc2c1nc1n2CC(O)CS1 (configuration not stated)", -1.44),
    ("O=C(CC1(O)C(=O)Nc2ccc(Br)cc21)c1cccs1 (configuration not stated)", -6.1),
    ("COCC(=O)N1N=C(c2ccc(NS(C)(=O)=O)cc2)CC1c1ccccc1 (configuration not stated)", 1.13),
    ("Cn1nc(-c2ccc(C(=O)N3CCCC3)cc2)c2ccccc2c1=O", 1.06),
    ("Cc1cc(NC(=O)CSCc2nc(-c3cccc(Cl)c3)oc2C)no1", 1.06),
    ("CCOc1cc(C2NC(=O)c3n[nH]c(C)c32)ccc1O (configuration not stated)", 1.27),
    ("Cn1c(=O)c2c(SCC(=O)Nc3ccccc3F)nc(-c3cccs3)nc2n(C)c1=O", 1.46),
    ("COC(=O)c1ccc(C(=O)OC)c(NC2=NS(=O)(=O)c3ccccc32)c1", 1.16),
    ("CN(CC(=O)NC1CCCc2ccccc21)S(=O)(=O)c1ccc2c(c1)CCC(=O)N2 (configuration not stated)", 1.18),
    ("COc1ccc(-c2nc3s/c(=C\\c4ccccc4)c(=O)n3n2)cc1OC", 1.68),
    ("O=C(CSc1nncc2ccccc12)Nc1ccccc1", 1.07),
    ("Cc1cc(C)cc(N2CN=c3s/c(=C4\\C(=O)Nc5ccccc54)c(=O)n3C2)c1", -1.15),
    ("Cn1c(=O)c2c(SCC(=O)Nc3ccc4c(c3)OCO4)nc(-c3ccco3)nc2n(C)c1=O", 1.03),
    ("O=C(CC(=O)Nc1ccccn1)Nc1ccc2nc3n(c(=O)c2c1)CCCCC3", -1.11),
    ("CC(CC(=O)NCCc1c[nH]c2ccccc12)CC1=NS(=O)(=O)c2ccccc2N1 (configuration not stated)", -1.46),
    ("CCOC(=O)c1c(NC(=O)Nc2ccc(F)cc2)sc2c1CCN(C(=O)OCC)C2", -1.41),
    ("COc1cc(OC)c(-c2nc(-c3ccc(C)cc3)no2)cc1OC", 1.55),
    ("c1ccc2c(c1)nc(N1CCN(C3CCCCC3)CC1)c1nncn12", 1.24),
    ("CCN1CCCC1CNC(=O)CN1C(=O)COc2ccc(S(=O)(=O)N3CCC(C)CC3)cc21 (configuration not stated)", 1.28),
    ("O=C(O)CCC(=O)N1CCc2cc(S(=O)(=O)N3CCc4ccccc4C3)ccc21", 1.93),
    ("Cc1ccc(CN2C(=O)/C(=C/c3c(NCCO)nc4ccc(C)cn4c3=O)SC2=S)cc1", -1.97),
    ("O=C(CCCCn1c(=O)[nH]c2ccsc2c1=O)NCCc1c[nH]c2ccccc12", -2.16),
]

* * *

Protocol details: modulation of TERT promoter-driven luciferase – cell-based, luciferase reporter, human, primary screen (AID 1259240)
Experimental context: A2780 TERT promoter luciferase reporter, 16 h; at 20 µM, fold versus average of vehicle-only wells
The source made the active and inactive calls. No stated cut-off is given here; in the data, active means fold change mostly below about -2 (no sharp cut-off); inactive means mostly above about -1.8.
# fold change per entry

# Compound, fold change
measured = [
    ("CCOc1cc2c(cc1OCC)C(c1ccc(Br)cc1)CC(=O)N2 (stereo not given)", "1.18 (inactive)"),
    ("CCN1C(=O)C(O)(CC(=O)c2ccc3c(c2)OCCO3)c2ccccc21 (stereo not given)", "-1.17 (inactive)"),
    ("Cc1nc(SCC(=O)NCC2CCCO2)c2c(=O)n(C)c(=O)n(C)c2n1 (stereo not given)", "1.01 (inactive)"),
    ("COc1ccc(-c2csc3nc(-c4ccccc4F)oc(=O)c23)cc1OC", "-1.03 (inactive)"),
    ("CCN1CCN(CCNc2cc(C)nc3c(-c4ccc(OC)c(OC)c4)c(C)nn23)CC1", "-1.31 (inactive)"),
    ("CC1=CSC2=NC(=O)/C(=C\\c3coc4ccccc4c3=O)C(=N)N12", "-1.1 (inactive)"),
    ("Cn1c2ccccc2c2cnn(CC(=O)N3CCN(C4CCCCC4)CC3)c(=O)c21", "-1.05 (inactive)"),
    ("COc1cc(OC)c(-c2nc(-c3cccnc3)no2)cc1OC", "1.51 (inactive)"),
    ("CCC(=O)N1CCc2cc(S(=O)(=O)CCC(=O)NCC3COc4ccccc4O3)ccc21 (stereo not given)", "-1.32 (inactive)"),
]
